Target: human EP3 receptor (Homo sapiens)
Experiment: Cellular in vitro assay for determining EP3 receptor activity (human EP3 cell line, sulprostone-stimulated calcium luminescence)
Conditions: CHO cells expressing human EP3 and mitochondrial Clytin; antagonist mode, sulprostone at EC50; read-out: EP3 CHO mtCLY ANTAG IC50
Protocol: B-1. Cellular In Vitro Assay for Determining EP3 Receptor Activity The identification of antagonists of the EP3 receptor from humans and rats as well as the quantification of the activity of the compounds of the invention was carried out using recombinant cell lines. […] Antagonists inhibit the receptor signaling, leading to reduced calcium release and luminescence. The bioluminescence of the cell lines is detected using a suitable luminometer (Trends Pharmacol. Sci. 1996, 17, 235-237). […]
pIC50: −log10 of the molar value.
attribute_measured: pIC50

Here's what some known entries look like.
COc1ccc([C@@H](NC(=O)c2nn3cc(-c4ccc(C)c(F)c4)[nH]c(=O)c3c2C2CC2)C(F)(F)CO)cn1	8.44
Cc1ccc(-c2cn3nc(C(=O)NCCN(C)C4CC4)c(C4CC4)c3c(=O)[nH]2)cc1C	8.84
Cc1c(C(=O)NC(C)c2ccccn2)nn2c(C)c(-c3ccc4ccccc4c3)[nH]c(=O)c12 (centres unmarked)	8.74
Cc1ccc(-c2cn3nc(C(=O)NCC(N)C(F)(F)F)c(C4CC4)c3c(=O)[nH]2)cc1C (single isomer, unassigned) [6-432]	8.96
CC(NC(=O)c1cc2c(=O)[nH]c(-c3ccc4ccccc4c3)cn2n1)c1ccc(Cl)cc1Cl (centres unmarked)	8.49

A: Cc1c(C(=O)NC2(c3ccc(C#N)cc3)CC2)nn2c(C)c(-c3ccc4ccccc4c3)[nH]c(=O)c12
B: COc1ccc2c(c1)C(NC(=O)c1nn3cc(-c4cnc5cccc(C)c5c4)[nH]c(=O)c3c1C(C)C)CC(C)(C)O2 (centres unmarked)
C: O=C(N[C@H](CCO)c1ccc(F)cc1)c1nn2cc(-c3ccc4ccccc4c3)[nH]c(=O)c2c1C(F)(F)F
D: COCc1c(C(=O)N[C@@H](c2ccc(F)cc2)C(F)(F)CO)nn2cc(-c3ccc(C)c(Cl)c3)[nH]c(=O)c12
Which order do these items take when sorted by rising pIC50? List them. Would you mind listing the labels in the order asked for?
B, A, D, C

P: CC(C)(O)[C@@H](NC(=O)c1nn2cc(-c3ccc(C(F)(F)F)c(Cl)c3)[nH]c(=O)c2c1C1CC1)c1ccc(F)cc1
Q: Cc1ccc(-c2cn3nc(C(=O)N[C@@H](c4ccccc4)C(C)(C)O)cc3c(=O)[nH]2)cc1F
For the pair P and Q , which entry has the numerically smaller recorded pIC50? Mark your answer with the label of the selected entry.
Q

P: COc1ccc(C(CCO)NC(=O)c2cc3c(=O)[nH]c(-c4ccc5c(c4)OCCO5)cn3n2)cc1 (centres unmarked)
Q: O=C(NC(CO)C(F)(F)F)c1nn2cc(-c3ccc(Cl)c(F)c3)[nH]c(=O)c2c1C1CC1 (single isomer, unassigned)
R: Cc1cccc2ncc(-c3cn4nc(C(=O)NC5(c6ccccc6)CCOCC5)c(C(C)C)c4c(=O)[nH]3)cc12
Sequence the entries by pIC50, beginning with the highest number. Would you mind listing the labels in the order asked for?
R, P, Q
(R: 9.08, P: 8.61, Q: 8.24)

----------
Molecular target: human EP3 receptor (Homo sapiens, UniProt P43115)
Construct: expressed in transfected cells; host or cells: CHO K1 (Chinese Hamster Ovary), stably co-transfected with Galpha16 and mitochondrial clytin
Sequence (P43115 1-390): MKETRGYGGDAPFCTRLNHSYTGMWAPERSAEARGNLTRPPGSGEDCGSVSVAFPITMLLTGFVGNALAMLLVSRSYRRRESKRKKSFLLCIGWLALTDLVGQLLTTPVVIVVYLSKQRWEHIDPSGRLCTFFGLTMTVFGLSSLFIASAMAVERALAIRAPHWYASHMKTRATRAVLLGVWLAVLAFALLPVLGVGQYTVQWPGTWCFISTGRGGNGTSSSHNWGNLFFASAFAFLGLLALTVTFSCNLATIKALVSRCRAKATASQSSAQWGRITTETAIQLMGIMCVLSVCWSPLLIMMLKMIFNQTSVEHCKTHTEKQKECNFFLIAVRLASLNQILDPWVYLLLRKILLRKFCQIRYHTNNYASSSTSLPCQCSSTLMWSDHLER
Test: Cellular in vitro assay for determining EP3 receptor activity (human EP3 cell line, sulprostone-stimulated calcium luminescence)
Type: cell-based
Settings: CHO cells expressing human EP3 and mitochondrial Clytin; antagonist mode, sulprostone at EC50; read-out: EP3 CHO mtCLY ANTAG IC50
attribute_measured: IC50 (nM)

Here's what some known entries look like.
CC(C)(O)[C@@H](NC(=O)c1nn2cc(-c3ccc(Cl)c(C(F)F)c3)[nH]c(=O)c2c1C1CC1)c1ccc(F)cc1	1.4
Cc1cc(-c2cn3nc(C(=O)NCC(O)(C(F)(F)F)C(F)(F)F)c(C4CC4)c3c(=O)[nH]2)ccc1Cl	2.95
Cc1nn(C(C)CNC(=O)c2cc3c(=O)[nH]c(-c4ccc5ccccc5c4)cn3n2)cc1Cl (stereo not shown)	2.2

P: Cc1c(C(=O)NC2(c3ccc(F)cc3)CCN(CC(F)(F)F)CC2)nn2cc(-c3ccc4ccccc4c3)[nH]c(=O)c12
Q: Cc1ccc(-c2cn3nc(C(=O)NC(C)(C)C4CC4)c(C4CC4)c3c(=O)[nH]2)cc1Cl
R: O=C(N[C@@H]1CCN(CC(F)(F)F)C1)c1nn2cc(-c3ccc4ccccc4c3)[nH]c(=O)c2c1C(F)(F)F (racemic)
S: Cc1ccc2c(c1)C(NC(=O)c1nn3cc(-c4cnc5cccc(C)c5c4)[nH]c(=O)c3c1C(C)C)CC(C)(C)O2 (stereo not shown)
Which order do these items take when sorted by rising IC50? List them. Would you mind listing the labels in the order asked for?
Q, R, P, S
